Molecular target: T1, rat TNF-alpha (rat, UniProt P16599 80-235)
T1 sequence (looked up): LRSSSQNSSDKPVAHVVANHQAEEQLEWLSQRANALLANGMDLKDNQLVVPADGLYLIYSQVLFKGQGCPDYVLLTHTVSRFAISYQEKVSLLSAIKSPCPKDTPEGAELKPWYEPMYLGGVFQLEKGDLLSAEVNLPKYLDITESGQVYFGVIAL
Test: antigen cross-reactivity, as described in the Examples above

binder: VL18-3L-VL11 DI5-PEP DI #9 (other, De-immunized dimer DI #5 fused to de-immunized PEP; also called Variant 9) ELVLTQQPASVEAAPGGTVTIKCQASQSISSYLAWYQQKPGHPPKLLIYKASTLASGVSSRFSGSGSGTEFTLTISDLKSADAATYYCQSTYLGGTYVGGAFGGGTELEIKSGGGGSGGGGSGGGGSSGELVMTQQPASVEAAPGGTVTIKCQASQSISSYLAWYQQKPGQPPKLLIYRASTLASGVSSRFSGSGSGTEFTLTISDLKSADAATYYCQSTYVNRGSVAAFGGGTKVVVKSGGGGSGGGGSGGGGSSGDITGAALLEAKDAAINELKQYGISDYYVHLINKADTVEGVNALKDEILSALPYPYDVPDYA
binding result: binds

Source of measurements: patent US20150037349A1
